System: Nucleic Acid
assay_name: Binding affinity to poly(dA-dT)n DNA assessed as increase in melting temperature at 0.3 mol compound per mole of DNA by spectrophotometry
Format: nucleic-acid assay
outcome_measure: ΔTm
Express the reported value numerically, then name its unit.

Task: Query ΔTm on Nucleic Acid for `N=C(Nc1ccc(NC(=N)c2ccccn2)cc1)c1ccccn1`
Output: 0 °C

Task: Query ΔTm on Nucleic Acid for `CC(C)Oc1cc(NC(=N)c2ccccn2)ccc1-c1ccc(NC(=N)c2ccccn2)cc1OC(C)C.Cl.Cl`
Output: 0.1 °C

Task: Query ΔTm on Nucleic Acid for `CC(C)Oc1cc(NC(=N)c2ccccn2)ccc1-c1ccc(-c2ccc(NC(=N)c3ccccn3)cc2OC(C)C)o1`
Output: 6 °C

Task: Query ΔTm on Nucleic Acid for `Cl.Cl.N=C(Nc1ccc(-c2ccc(NC(=N)c3ccccn3)cc2)cc1)c1ccccn1`
Output: 6 °C

Task: Query ΔTm on Nucleic Acid for `N=C(Nc1ccc(NC(=N)c2ncccn2)cc1)c1ncccn1`
Output: 0 °C

Task: Query ΔTm on Nucleic Acid for `N=C(Nc1ccc(Cc2ccc(NC(=N)c3ccccn3)cc2)cc1)c1ccccn1`
Output: 2.1 °C

Task: Query ΔTm on Nucleic Acid for `N=C(Nc1ccccn1)c1ccc(C(=N)Nc2ccccn2)cc1`
Output: 0.5 °C

Task: Query ΔTm on Nucleic Acid for `N=C(Nc1ccc(COCc2ccc(NC(=N)c3ccccn3)cc2)cc1)c1ccccn1`
Output: 4 °C

Task: Query ΔTm on Nucleic Acid for `Cl.Cl.N=C(Nc1ccc(Oc2ccc(NC(=N)c3ccccn3)cc2)cc1)c1ccccn1`
Output: 5.2 °C
